All values here come from PubChem BioAssay (NCATS).

assay: High-throughput drug toxicity screening in the BPDCN cell line Gen2.2 (AID 1224824); details: Gen2.2 BPDCN cells; at 45.8 µM (top of the series) unless noted;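 also: cells exposed to compounds for 48 h before reading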
API: label(entry) gives YES if the entry's cell viability, % of control (lower = more cytotoxic) is strictly smaller than 20%; on equality or larger values it gives NO.

smiles.notation: CCNC(=O)Nc1ccc2ncc(Nc3ccc(C)cc3)nc2n1
class.assignment: NO

smiles.notation: COc1c(N2C[C@@H]3CCCN[C@H]3C2)c(F)cc2c(=O)c(C(=O)O)cn(C3CC3)c12
class.assignment: NO

smiles.notation: CC(=O)Nc1nc(C)c(-c2ccc(Cl)c(S(=O)(=O)NCCO)c2)s1
class.assignment: YES

smiles.notation: CC(C)c1ccc(Cn2ccc3c4c(N)nc(NC5CC5)nc4ccc32)cc1
class.assignment: YES

smiles.notation: Nc1nc(NCCNc2ncc(-n3ccnc3)c(-c3ccc(Cl)cc3Cl)n2)ccc1[N+](=O)[O-]
class.assignment: YES

smiles.notation: O=C(Nc1nc2cccc(-c3ccc(CN4CCS(=O)(=O)CC4)cc3)n2n1)C1CC1
class.assignment: NO

smiles.notation: O=C(C=Cc1cccnc1)NCCCCC1CCN(C(=O)c2ccccc2)CC1
class.assignment: NO

smiles.notation: C=CC(=O)Nc1cccc(Oc2nc(Nc3ccc(N4CCN(C)CC4)cc3)ncc2Cl)c1
class.assignment: YES

smiles.notation: CC[C@@]1(O)C(=O)OCc2c1cc1n(c2=O)Cc2cc3cc(O)ccc3nc2-1
class.assignment: YES

smiles.notation: C=CC(=O)Nc1cc2c(Nc3ccc(F)c(Cl)c3)ncnc2cc1C#CC(C)(C)N1CCN(C)CC1
class.assignment: YES

smiles.notation: CC(C)=CCCC(C)=CCCC(C)=CCSc1ccccc1C(=O)O
class.assignment: YES

smiles.notation: COc1cc(C(=O)NS(=O)(=O)c2ccccc2C)ccc1Cc1cn(C)c2ccc(NC(=O)OC3CCCC3)cc12
class.assignment: YES

smiles.notation: CNC(=O)c1ccccc1Nc1nc(Nc2ccc(N3CCOCC3)cc2OC)ncc1Cl
class.assignment: YES

smiles.notation: CC1=C(CO)C(=O)O[C@@H]([C@@H](C)[C@H]2CC[C@H]3[C@@H]4C[C@H]5O[C@]56[C@@H](O)C=CC(=O)[C@]6(C)[C@@H]4CC[C@]23C)C1
class.assignment: YES

smiles.notation: Cc1ccc(C(N)=O)cc1Nc1nccc(-c2cn(C(C)C)c3cnccc23)n1
class.assignment: YES

smiles.notation: Cc1coc2c1C(=O)C(=O)c1c-2ccc2c1CCCC2(C)C
class.assignment: NO

smiles.notation: Cc1cc(Nc2ncnc3ccc(-c4ccc(CNCCS(C)(=O)=O)o4)cc23)ccc1Oc1ccn2ncnc2c1
class.assignment: YES

smiles.notation: NC(=O)c1cccc2cn(-c3ccc([C@@H]4CCCNC4)cc3)nc12
class.assignment: NO

smiles.notation: CCCCc1nc2cc(C=CC(=O)NO)ccc2n1CCN(CC)CC
class.assignment: NO

---

Tested on: CASKI
Assay: Primary qHTS to identify gynecologic anti-cancer compounds using libraries of approved drugs and bioactive compounds (AID 1345084); also: nearly all actives have a fitted effect of over 55% in size
Details: Gynecologic cancer cell panel viability, ATPlite luminescence, 48 h; series mostly up to 57.5 µM
Excerpt: National Center for Advancing Translational Sciences [NCATS] Assay Overview: Chemotherapeutic drug responses vary from cancer to cancer and from patient to patient. […] ATPlite is a luminescence based assay reliant on the conversion of a luciferase substrate to light in the presence of ATP. As a cytotoxic compound will suppress growth and decrease the number of cells, the concentration of ATP will decrease, and less light signal will be detected in the well. […]
Records with an inconclusive call do not appear. Active and inactive are the calls of the source. Calls come from the whole dose curve; as a rule, active = well fitted cell-killing curve with a large enough effect; inconclusive = small, poorly fitted or top-dose-only effect, or effect the other way; inactive = flat fitted curve, though single readings scatter.
Labels: active, inactive

molecule: C=CCn1c(=O)c2cnc(Nc3ccc(N4CCN(C)CC4)cc3)nc2n1-c1cccc(C(C)(C)O)n1
class.assignment: active

molecule: CC(C)(O)CCc1ccc(OCc2cc(-c3cccc(OC(F)F)c3)c3ncccc3c2)cc1
class.assignment: inactive

molecule: Cn1cc(-c2ccncc2)c(-c2ccc(OCc3ccc4ccccc4n3)cc2)n1
class.assignment: inactive

molecule: NCC(=O)Nc1ccc(-n2nc(C(F)(F)F)cc2-c2ccc3c(ccc4ccccc43)c2)cc1
class.assignment: inactive

molecule: COc1cc(Nc2ncc(F)c(Nc3ccc4c(n3)N(COP(=O)(O)O)C(=O)C(C)(C)O4)n2)cc(OC)c1OC
class.assignment: active

molecule: Cc1cnc(-c2cnc(NCCNc3ccc(C#N)cn3)nc2-c2ccc(Cl)cc2Cl)[nH]1
class.assignment: inactive

molecule: CN(C)CC(C)(C)CNc1nn2c(-c3ccccc3)nnc2cc1C1CCC1
class.assignment: inactive

molecule: Cn1cc(-c2[nH]c3cc(NC(=O)[C@H](N)C4CCCCC4)cc4c3c2C=NNC4=O)cn1
class.assignment: inactive

molecule: CCCCOc1c(C(=O)c2c(F)cc(C)cc2F)cnc2n[nH]cc12
class.assignment: inactive

molecule: O=C(O)CCCc1c[nH]c2ccccc12
class.assignment: inactive

molecule: CC(C)(C)c1cc(NC(=O)Nc2ccc(-c3cn4c(n3)sc3cc(OCCN5CCOCC5)ccc34)cc2)no1
class.assignment: inactive

molecule: CNC(=O)c1ccc(N2C(=S)N(c3cnc(C#N)c(C(F)(F)F)c3)C(=O)C23CCC3)cc1F
class.assignment: inactive

molecule: O=c1c2ccccc2nc2n1CCc1c-2[nH]c2ccccc12
class.assignment: inactive

molecule: Nc1nc(NCCNc2ncc(-n3ccnc3)c(-c3ccc(Cl)cc3Cl)n2)ccc1[N+](=O)[O-]
class.assignment: inactive

molecule: Cc1cc(Nc2ncnc3ccc(-c4ccc(CNCCS(C)(=O)=O)o4)cc23)ccc1Oc1ccn2ncnc2c1
class.assignment: inactive

molecule: Cc1c(C)n(Cc2ccc(-c3ccccc3C(=O)O)cc2)c2ccc(C(=O)N[C@@H](C)c3ccc([N+](=O)[O-])cc3)cc12
class.assignment: inactive

molecule: O=C(Nc1cc(C(F)(F)F)cc(C(F)(F)F)c1)c1cc(Cl)ccc1O
class.assignment: active

molecule: N#CCNC(=O)c1ccc(-c2ccnc(Nc3ccc(N4CCOCC4)cc3)n2)cc1
class.assignment: inactive

molecule: CCOc1ccccc1OCCNC(C)Cc1ccc(OC)c(S(N)(=O)=O)c1 (centres undefined)
class.assignment: inactive
